Biological target: Endothelin-1 receptor (Homo sapiens, UniProt P25101)
Sequence (P25101 whole entry): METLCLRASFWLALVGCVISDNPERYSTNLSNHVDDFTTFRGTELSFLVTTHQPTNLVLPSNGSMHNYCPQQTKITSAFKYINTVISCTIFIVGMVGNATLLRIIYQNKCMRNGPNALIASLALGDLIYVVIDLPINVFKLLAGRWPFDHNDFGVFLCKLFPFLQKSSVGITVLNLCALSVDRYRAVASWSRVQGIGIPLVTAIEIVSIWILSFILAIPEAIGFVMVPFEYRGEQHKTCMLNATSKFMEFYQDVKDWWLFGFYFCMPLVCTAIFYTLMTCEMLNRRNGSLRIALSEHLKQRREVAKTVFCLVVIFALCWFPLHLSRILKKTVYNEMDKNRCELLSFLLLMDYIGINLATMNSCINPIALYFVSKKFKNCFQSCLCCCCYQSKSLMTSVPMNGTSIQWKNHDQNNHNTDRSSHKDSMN
Parameter Measured: log10 Ki (log10 of the value in nM)
Log10 applied to Ki; unit prior to transform: nM.

Query :: Recorded log10 Ki for COc1cc(OC)nc(OC(C(=O)O)C(OCCC(C)(C)C)(c2ccccc2)c2ccccc2)n1 (stereo not drawn) , please?
Result :: 2.53

Query :: Can you handle COc1nc(OC(C(=O)O)C(OC)(c2ccccc2)c2ccccc2)nc2c1CCO2 (stereo not drawn) next?
Result :: -0.05

Query :: Entry COc1cccc(C(OC)(c2cccc(OC)c2)C(Oc2nc(OC)cc(OC)n2)C(=O)O)c1 (stereo not drawn) please
Result :: 1.34

Query :: Further, for COC(=O)C(Oc1nc(OC)cc(OC)n1)C(C)(Oc1ccc(C(C)C)cc1)c1ccccc1 (stereo not drawn) ?
Result :: 2.40

Query :: Try this molecule next: COc1nc(OC(C(=O)O)C(OC)(c2ccccc2)c2ccccc2)nc2c1CCC2 (stereo not drawn)
Result :: -0.40

Query :: Check COc1cc(OC)nc(OC(C(=O)O)C(OC)(c2ccccc2F)c2ccccc2F)n1 (stereo not drawn) too.
Result :: 2.18

Query :: Likewise for COc1cc(OC)nc(OC(C(=O)O)C(OC)(c2cccc(C)c2)c2cccc(C)c2)n1 (stereo not drawn) ?
Result :: 1.38

Query :: Now consider COC(=O)C(Oc1nc(OC)cc(OC)n1)C(C)(Oc1ccc(SC)cc1)c1ccccc1 (stereo not drawn) and answer again.
Result :: 2.20
